molecular target: AKT1 (Homo sapiens (Human)); assay: Inactive Akt Alpha Screen Assay; details: non *labeled: Akt Alpha Screen assay; read-out: AKT1 biochemical assay, IC50
Sequence (P31749 whole entry): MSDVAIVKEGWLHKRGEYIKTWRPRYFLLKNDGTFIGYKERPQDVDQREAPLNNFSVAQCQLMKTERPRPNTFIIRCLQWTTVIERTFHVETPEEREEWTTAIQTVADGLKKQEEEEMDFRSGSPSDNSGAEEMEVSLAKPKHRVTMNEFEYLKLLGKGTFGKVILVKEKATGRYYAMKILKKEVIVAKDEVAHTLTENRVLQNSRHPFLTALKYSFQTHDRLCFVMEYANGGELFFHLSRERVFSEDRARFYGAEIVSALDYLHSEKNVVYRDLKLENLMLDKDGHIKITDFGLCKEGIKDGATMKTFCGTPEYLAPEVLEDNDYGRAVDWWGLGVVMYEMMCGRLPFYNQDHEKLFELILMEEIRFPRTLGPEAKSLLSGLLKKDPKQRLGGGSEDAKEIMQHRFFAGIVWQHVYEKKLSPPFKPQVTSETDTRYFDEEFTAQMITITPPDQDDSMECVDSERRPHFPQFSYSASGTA
value_type: pIC50
Scale: pIC50 equals -log10([C]), with [C] in mol/L.

Examples with their reported pIC50 follow.
CN1CCC(N(C)Cc2ccc(-c3nnc4n3-c3cccnc3Nc3ccccc3-4)cc2)CC1 [Example 88]: 5.26
O=C(c1ccccc1F)N1CCN(Cc2ccc(-c3nnc4n3-c3cccnc3Nc3ccccc3-4)cc2)CC1 [Example 141]: 6.35
O=C(NCc1ccc(-c2nnc3n2-c2cccnc2Nc2ccccc2-3)cc1)c1ccccc1 [Example 99]: 6.70
COc1ccc(C)cc1NC(=O)NC1CCN(Cc2ccc(-c3nnc4n3-c3cccnc3Nc3ccccc3-4)cc2)CC1 [Example 166]: 6.14
COc1ccc(S(=O)(=O)NCCc2ccc(-c3nnc4n3-c3cccnc3Nc3ccccc3-4)cc2)cc1 [Example 109]: 5.04
O=c1[nH]c2ccccc2n1C1CCN(Cc2ccc(-c3nnc4n3-c3cccnc3Nc3ccccc3-4)cc2)CC1 [Example 24]: 7.08

Okay, now this compound:
Query string: For the compound c1ccc(CNCc2ccc(-c3nnc4n3-c3cccnc3Nc3ccccc3-4)cc2)cc1 [Example 66] , what pIC50 is on record?
Result string: 5.72
